measurementTarget: hSTING (Homo sapiens, UniProt Q86WV6, G230A/H232R/R293Q/R71H)
Sequence (Q86WV6 whole entry R71H/G230A/H232R/R293Q): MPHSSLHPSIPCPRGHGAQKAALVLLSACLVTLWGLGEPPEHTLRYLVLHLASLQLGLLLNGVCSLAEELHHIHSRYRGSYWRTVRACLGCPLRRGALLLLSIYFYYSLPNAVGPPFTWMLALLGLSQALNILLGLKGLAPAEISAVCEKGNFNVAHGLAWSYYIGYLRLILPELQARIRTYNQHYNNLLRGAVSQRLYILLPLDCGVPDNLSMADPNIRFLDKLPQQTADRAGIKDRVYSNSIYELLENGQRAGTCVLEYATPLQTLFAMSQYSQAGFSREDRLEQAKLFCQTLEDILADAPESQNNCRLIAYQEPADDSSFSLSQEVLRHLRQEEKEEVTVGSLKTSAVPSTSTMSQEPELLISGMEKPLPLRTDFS
assayProtocol: STING reporter assay (luciferase) in THP1-Dual KO-IFNAR2 cells activated with 2'3'cGAMP
conditionSummary: 15 μM 2'3'cGAMP, 24 h
pEC50: −log10 of the molar value.
Collected pEC50 values appear next to each entry.

Use these answered entries as a reference point.
Prompt: So what does the record say about pEC50 for Cc1ccc2[nH]c(Nc3cc(Cl)c4cc[nH]c4c3)nc2c1 ?
Response: 6.00 to 6.70

Prompt: Query Clc1cc(Nc2nc3cc(-c4cnn(C5CCOCC5)c4)ccc3[nH]2)cc2[nH]ccc12 next
Response: 6.00 to 6.70

Others:
Prompt: So what does the record say about pEC50 for O=C(C1CC1)N1CCC(c2ccc3[nH]c(Nc4cc(Cl)c5cc[nH]c5c4)nc3c2)CC1 ?
Response: 6.00 to 6.70

Prompt: Query Fc1c[nH]c2cc(Nc3nc4cc(C(F)(F)F)ccc4[nH]3)ccc12 next
Response: 6.70 to 7.40

Prompt: Query Fc1c[nH]c2cc(Nc3nc4cc(Cl)c(Cl)cc4[nH]3)ccc12 next
Response: 6.70 to 7.40

Prompt: Query CC(C)(C)OC(=O)N1CCCC(c2ccc3[nH]c(Nc4cc(Cl)c5cc[nH]c5c4)nc3c2)C1 (centres unmarked) next
Response: 6.00 to 6.70

Prompt: Query Cn1c(Nc2cc(Cl)c3cc[nH]c3c2)nc2cc(Cl)c(Cl)cc21 next
Response: 6.00 to 6.70

Prompt: Query CC(C)(C)OC(=O)N1C2C=C(c3ccc4[nH]c(Nc5cc(Cl)c6cc[nH]c6c5)nc4c3)CC1CC2 (centres unmarked) next
Response: 5.30 to 6.00

====

Collected pEC50 values appear next to each entry.
measurementTarget: hSTING (Homo sapiens, UniProt Q86WV6, G230A/H232R/R293Q/R71H)
assayProtocol: STING reporter assay (luciferase) in THP1-Dual KO-IFNAR2 cells activated with 2'3'cGAMP
conditionSummary: 15 μM 2'3'cGAMP, 24 h
pEC50: −log10 of the molar value.

Use these answered entries as a reference point.
Prompt: Lookup: pEC50 / hSTING (Homo sapiens, UniProt Q86WV6, G230A/H232R/R293Q/R71H) / CC(C)(O)c1ccc(-c2ccc3[nH]c(Nc4cc(Cl)c5cc[nH]c5c4)nc3c2)cc1
Response: 6.00 to 6.70

Prompt: Query Clc1cc(Nc2nc3cc(-c4cnn(CC5CC5)c4)ccc3[nH]2)cc2[nH]ccc12 next
Response: 6.00 to 6.70

Prompt: Query FC(F)n1cc(-c2ccc3[nH]c(Nc4cc(Cl)c5cc[nH]c5c4)nc3c2)cn1 next
Response: 6.00 to 6.70

Prompt: Query FC(F)(F)CN1CCC(c2ccc3[nH]c(Nc4cc(Cl)c5cc[nH]c5c4)nc3c2)CC1 next
Response: 6.00 to 6.70

Prompt: Query Cn1nccc1-c1ccc2[nH]c(Nc3cc(Cl)c4cc[nH]c4c3)nc2c1 next
Response: 6.00 to 6.70

Others:
Prompt: Lookup: pEC50 / hSTING (Homo sapiens, UniProt Q86WV6, G230A/H232R/R293Q/R71H) / COCc1cccc(-c2ccc3[nH]c(Nc4cc(Cl)c5cc[nH]c5c4)nc3c2)c1
Response: 6.00 to 6.70

Values from patent US20240051970A1
